Reported IC50 is given for each of the following compounds.
Molecular target: Induced myeloid leukemia cell differentiation protein Mcl-1 (Homo sapiens)
Sequence (Q07820 whole entry): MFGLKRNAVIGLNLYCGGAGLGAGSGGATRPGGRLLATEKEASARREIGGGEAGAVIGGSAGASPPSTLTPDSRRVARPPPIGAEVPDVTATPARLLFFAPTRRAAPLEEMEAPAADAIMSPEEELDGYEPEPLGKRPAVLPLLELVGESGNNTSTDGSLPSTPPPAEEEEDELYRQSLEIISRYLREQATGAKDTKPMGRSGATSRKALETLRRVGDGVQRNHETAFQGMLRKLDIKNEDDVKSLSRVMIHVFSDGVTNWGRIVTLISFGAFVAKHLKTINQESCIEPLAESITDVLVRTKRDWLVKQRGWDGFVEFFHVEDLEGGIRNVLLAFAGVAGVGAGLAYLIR
Test: Displacement of FITC-Bim BH3 peptide from Mcl-1 after 10 mins by fluorescence polarization assay
property.measured: IC50 (µM)

>>> print(df.to_string())
                                 mol_smiles  data_value
0  CC1=C(C2=C(C)C(=O)c3c(cc(O)c(O)c3CCC3CCCCC3)C2=O)C(=O)c2cc(O)c(O)c(CCC3CCCCC3)c2C1=O         5.9
1  CCc1ccc(CCNC(=O)c2c(O)c(O)cc3c2C(=O)C(C)=C(C2=C(C)C(=O)c4c(cc(O)c(O)c4C(=O)NCCc4ccc(CC)cc4)C2=O)C3=O)cc1        0.32
2  CC1=C(C2=C(C)C(=O)c3c(cc(O)c(O)c3CCc3ccc(C)cc3)C2=O)C(=O)c2cc(O)c(O)c(CCc3ccc(C)cc3)c2C1=O        2.05
